Reference for the values: PubChem BioAssay (NCI)

system: SK-MEL-2 melanoma; assay: NCI tumour cell line growth inhibition, 48 h
TGI reference
reported_property: TGI

[
  {
    "compound": "CC(C)(C)c1cc(C2=NN(c3ccccc3)C(c3ccccc3)C2)cc(C(C)(C)C)c1O (stereo unspecified)",
    "reported_property": "TGI",
    "result": "> 100 µM"
  },
  {
    "compound": "Nc1nc(-c2ccccc2)nc2c1[n+]([O-])c1ccccc1[n+]2[O-]",
    "reported_property": "TGI",
    "result": "> 100 µM"
  },
  {
    "compound": "COC(=O)C1=C(O)C(C(=O)OC)[C@]2(O)[C@H](C(=O)OC)[C@H]1C[C@@H](c1c(Cl)cccc1Cl)[C@H]2C(=O)OC (stereo partly specified)",
    "reported_property": "TGI",
    "result": "3.33 µM"
  },
  {
    "compound": "N=C(N)SCc1ccc(Cl)cc1Cl (tested in a mixture with another compound)",
    "reported_property": "TGI",
    "result": "27.5 µM"
  },
  {
    "compound": "Cc1cc(NC[C@H](O)[C@H](O)[C@H](O)CO)c(Sc2cc(=O)[nH]c(=O)[nH]2)cc1C",
    "reported_property": "TGI",
    "result": "> 62.5 µM"
  },
  {
    "compound": "CC(C)CCN=C(N)c1ccc(N2CCN(c3ccc(C(N)=NCCC(C)C)cc3)CC2)cc1",
    "reported_property": "TGI",
    "result": "> 100 µM"
  },
  {
    "compound": "C/C(=C/C(=O)Nn1c(Cc2ccccc2)n[nH]c1=O)C(=O)O",
    "reported_property": "TGI",
    "result": "> 100 µM"
  },
  {
    "compound": "COc1cc(C2C(C(=O)O)=C(COC(C)=O)Oc3cc4c(cc32)OCO4)cc(OC)c1OC (stereo unspecified)",
    "reported_property": "TGI",
    "result": "> 100 µM"
  },
  {
    "compound": "C1=CC=C2NCCCNC3=CC=CC=CC3=NCCCN=C2C=C1",
    "reported_property": "TGI",
    "result": "> 100 µM"
  },
  {
    "compound": "COC(=O)c1c(N)n[nH]c1N",
    "reported_property": "TGI",
    "result": "> 100 µM"
  },
  {
    "compound": "O=CC(O)C(O)C(O)C(O)COP(=O)(O)Cc1ccccc1 (stereo unspecified)",
    "reported_property": "TGI",
    "result": "> 10 µM"
  },
  {
    "compound": "O=C/C=C/c1ccco1",
    "reported_property": "TGI",
    "result": "> 100 µM"
  },
  {
    "compound": "Nc1[nH]c(=S)nc2snnc12",
    "reported_property": "TGI",
    "result": "> 100 µM"
  },
  {
    "compound": "CC1OC(OC2C(O[C@H]3CC[C@@]4(C)C(=CC[C@H]5[C@@H]6C[C@@H]7O[C@]8(CC[C@H](C)CN8)[C@@H](C)[C@@H]7[C@@]6(C)CC[C@@H]54)C3)OC(CO)C(O)C2OC2OC(CO)C(O)C(O)C2O)C(O)C(O)C1O (stereo partly specified)",
    "reported_property": "TGI",
    "result": "32.4 µM"
  },
  {
    "compound": "Cc1ccc(-n2[nH]nc(C#N)c2=O)cc1",
    "reported_property": "TGI",
    "result": "> 100 µM"
  },
  {
    "compound": "COc1cc2c(cc1Nc1nc(Nc3ccsc3C(N)=O)c3cc[nH]c3n1)N(C(=O)CN(C)C)CCC2(C)C",
    "reported_property": "TGI",
    "result": "3.63 µM"
  },
  {
    "compound": "O=C(/C=C/c1ccc(/C=C/C(=O)c2ccc(O)cc2)cc1)c1ccc(O)cc1",
    "reported_property": "TGI",
    "result": "> 100 µM"
  },
  {
    "compound": "CCNC(=O)c1cc2c(-c3cc(C(C)(C)O)ccc3Oc3c(C)cc(F)cc3C)cn(C)c(=O)c2[nH]1",
    "reported_property": "TGI",
    "result": "15 µM"
  },
  {
    "compound": "O=S(=O)(O)ON=C1c2ccccc2-c2ccccc21",
    "reported_property": "TGI",
    "result": "> 100 µM"
  },
  {
    "compound": "NCCCNCCCCN(CCCN)/[N+]([O-])=N\\O",
    "reported_property": "TGI",
    "result": "> 100 µM"
  },
  {
    "compound": "Cn1/c(=N\\S(=O)(=O)c2ccccc2)n(S(=O)(=O)c2ccccc2)c2ccccc21",
    "reported_property": "TGI",
    "result": "> 100 µM"
  },
  {
    "compound": "N#Cc1c(N)nc(N2CCOCC2)c(C#N)c1-c1cccnc1",
    "reported_property": "TGI",
    "result": "> 100 µM"
  },
  {
    "compound": "CCCCCCCCCCCCCP(=O)(O)OCC",
    "reported_property": "TGI",
    "result": "> 100 µM"
  },
  {
    "compound": "CCCCS(=O)(=O)CCC(N)C(=O)O (stereo unspecified)",
    "reported_property": "TGI",
    "result": "> 100 µM"
  },
  {
    "compound": "CCOC(=O)c1ccc(C(=O)/C(C(C)=O)=C2\\CCCN2C)n1C",
    "reported_property": "TGI",
    "result": "> 100 µM"
  },
  {
    "compound": "COC(=O)CCC(=O)CC(=O)C(=O)Nc1c(Cl)cc([N+](=O)[O-])cc1Cl",
    "reported_property": "TGI",
    "result": "> 100 µM"
  },
  {
    "compound": "CN1CCC(CN2c3ccccc3Sc3ccccc32)CC1",
    "reported_property": "TGI",
    "result": "31 µM"
  },
  {
    "compound": "CC1C[C@@H]2C(=O)NC(=O)[C@@H]2c2c1c1ccccc1n2C (stereo partly specified)",
    "reported_property": "TGI",
    "result": "> 100 µM"
  },
  {
    "compound": "O=C1/C(=C/c2cccc(Br)c2)CSC/C1=C\\c1cccc(Br)c1",
    "reported_property": "TGI",
    "result": "12 µM"
  },
  {
    "compound": "COc1ccc(C(SCCO)(c2ccccc2)c2ccccc2)cc1",
    "reported_property": "TGI",
    "result": "28 µM"
  },
  {
    "compound": "CN(C)CCNC(=O)c1cccc2c1nc(-c1ccccc1)c1ccccc12",
    "reported_property": "TGI",
    "result": "23.6 µM"
  },
  {
    "compound": "O=C1CCCC/C1=C\\c1ccc(Br)cc1",
    "reported_property": "TGI",
    "result": "46.4 µM"
  },
  {
    "compound": "O=C(CC1(O)C(=O)Nc2c(Cl)cc(Cl)cc21)c1cccc2ccccc12 (stereo unspecified)",
    "reported_property": "TGI",
    "result": "32.6 µM"
  },
  {
    "compound": "Cc1cc(C)nc(SC(C)C(=O)N/N=C/c2ccc(OCc3ccccc3)cc2)n1 (stereo unspecified)",
    "reported_property": "TGI",
    "result": "46.1 µM"
  },
  {
    "compound": "CC(=O)O[C@@H]1C2=C(C)C=C(O2)[C@H]2O[C@]2(C)C[C@H]2C=C(C(=O)O2)[C@H](OC(C)=O)CC1[C@@]1(C)CO1 (stereo partly specified)",
    "reported_property": "TGI",
    "result": "> 100 µM"
  },
  {
    "compound": "CCC(=O)c1c(NOC2OC(COC(C)=O)C(OC(C)=O)C(OC(C)=O)C2OC(C)=O)nc(OC)n(C)c1=O (stereo unspecified)",
    "reported_property": "TGI",
    "result": "> 100 µM"
  },
  {
    "compound": "CC(=O)c1ccc(NC(=O)C(=O)Nn2c(=S)[nH]c3ccccc3c2=O)cc1",
    "reported_property": "TGI",
    "result": "> 100 µM"
  },
  {
    "compound": "CCOC(=O)C1=C(C)N(c2ccc(C)cc2)C2=C(C(=O)N(c3ccccc3)C2c2ccccc2)C1c1ccccc1 (stereo unspecified)",
    "reported_property": "TGI",
    "result": "> 25 µM"
  },
  {
    "compound": "O=C(NP(=O)(N1CC1)N1CC1)c1cc(I)ccc1I",
    "reported_property": "TGI",
    "result": "> 100 µM"
  },
  {
    "compound": "O=[N+]([O-])c1cccc(C2ON2C2CCCCC2)c1 (stereo unspecified)",
    "reported_property": "TGI",
    "result": "62.8 µM"
  },
  {
    "compound": "CCCCNC(=S)Nc1nc(C(=O)NNC(=S)NC2CCCCC2)cs1",
    "reported_property": "TGI",
    "result": "> 100 µM"
  }
]
